- measurement.target: NCL RBD1,2 (UniProt P19338 307-466)
- Sequence (P19338 307-466): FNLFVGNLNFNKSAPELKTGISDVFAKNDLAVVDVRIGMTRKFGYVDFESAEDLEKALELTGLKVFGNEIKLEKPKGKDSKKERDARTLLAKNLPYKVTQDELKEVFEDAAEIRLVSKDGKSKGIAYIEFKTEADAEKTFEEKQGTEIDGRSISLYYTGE
- procedure.details: fluorescence titration; Hill n 0.20; SD exceeds Kd; K100: 100 mM KCl, 10 mM lithium cacodylate pH 7.2; 100 nM Cy5-oligonucleotide pre-annealed, 5 min equilibration per protein addition; temperature not stated
- condition.parameters: label: 5'-Cy5; G-quadruplex
readout.type: pKd
When answering, recall that pKd equals minus log10 of the concentration in mol/L, and write that number alone.

Consider the binder GGTGGTGGTGGTTTGGTGGTGGTGG (structured_DNA) [Cy5-AT14-T1] and give its measured pKd.
8.85

Value source: paper PMC12029569
